# Tested system: T1, human RANKL protein (human, UniProt O14788 140-317, limits assumed)
# T1 sequence (looked up): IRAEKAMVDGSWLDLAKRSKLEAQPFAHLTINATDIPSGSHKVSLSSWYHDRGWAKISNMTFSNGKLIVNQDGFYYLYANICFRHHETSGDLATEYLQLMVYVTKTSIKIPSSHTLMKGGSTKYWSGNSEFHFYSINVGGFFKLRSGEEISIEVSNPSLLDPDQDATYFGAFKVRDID
# Assay remarks: competition ELISA: RANKL (0.5 ug/ml) pre-incubated with the antibody, then binding to coated human RANK (8 ug/ml) detected; blocked partner RANK
Measure: IC50 (µg/mL)
Give bare numbers, in µg/mL.

Would you mind telling me what IC50 value was observed for clone 191 rabbit anti-RANKL antibody (antibody, V domains shown) VH: QSVEESGGRLVTPGTPLTLTCTVSGFSLYTNLINWVRQAPGKGLEWIGYINYGASAYYANWAKGRFTISQTSSTTVDLKMTSLTIEDTATYFCARGYGNDWDRLDLWGQGTLVTVSS VL: IVMTQTPSPVSGAVGGTVTINCQASQSIGSNLAWYQQKPGQPPKLLIYSASILASGAPSRVSGSGYGTEFTLTISGVQCADAATYYCQQGYTTNADNIFGGGTEVVVE ?
0.0823
